# assaySystem: HLA-A*31:01
# assayOverview: IEDB peptide-MHC binding, purified MHC/competitive/radioactivity; bounds were set here for any values at or beyond the usual limits of such assays
# conditionSet: source organism: Mammarenavirus lassaense
observationType: IC50
// unit must come after the numeric part

q: Param readout = IC50; param system = HLA-A*31:01; param query = ALMSIISTFH ; response: value
a: 3.68 µM

* * *

Consider the following sequences; for each one, report its log10 IC50.
# assaySystem: HLA-A*02:01
# assayOverview: IEDB peptide-MHC binding, purified MHC/competitive/radioactivity; bounds were set here for any values at or beyond the usual limits of such assays
# conditionSet: source organism: Hepatitis B virus
In our notation, the value equals log10 of IC50 in nM.

q: Param readout = log10 IC50; param system = HLA-A*02:01; param query = YQGMLPVCPL ; response: value
a: 2.73

q: Param readout = log10 IC50; param system = HLA-A*02:01; param query = CLRRFIIFL ; response: value
a: 3.14

q: Param readout = log10 IC50; param system = HLA-A*02:01; param query = YLVSFGVWI ; response: value
a: 2.24

q: Param readout = log10 IC50; param system = HLA-A*02:01; param query = PLLPIFFCL ; response: value
a: 2.05

q: Param readout = log10 IC50; param system = HLA-A*02:01; param query = FLFILLLCLI ; response: value
a: 2.13

q: Param readout = log10 IC50; param system = HLA-A*02:01; param query = ILSPFLPLL ; response: value
a: 0.15

q: Param readout = log10 IC50; param system = HLA-A*02:01; param query = KQYLNLYPV ; response: value
a: 2.14

q: Param readout = log10 IC50; param system = HLA-A*02:01; param query = LVPFVQWFV ; response: value
a: 2.23

q: Param readout = log10 IC50; param system = HLA-A*02:01; param query = SLYSILSPFL ; response: value
a: 0.91

q: Param readout = log10 IC50; param system = HLA-A*02:01; param query = FIIFLFILLL ; response: value
a: 2.02

q: Param readout = log10 IC50; param system = HLA-A*02:01; param query = GLSPTVWLSV ; response: value
a: 1.46
